These entries and their values trace back to paper PMC5540273.

Field: %Inh. Provide a value for each of the molecules that follow.
Test system: CDKL3
Conditions: concentration: 1 μM, replicates: in singlicate; n = 1
State the answer as a number, implicitly in %.

Need %Inh of COC(=O)c1cccc(NC(=O)NC2CCN(c3ccnc(Nc4ccc(OC)cc4)n3)C2)c1 (centres unmarked) [GSK1379746] , thanks.
0

Same read-out for CNc1cc(-c2ccc3c(N)n[nH]c3c2)nc(N)n1 [GSK2224810] ?
0

Same read-out for COc1ccc(CSc2nnc(-c3ccc4nccn4c3)o2)cc1C(F)(F)F ?
18

Same read-out for Cc1c(Cn2c3ccccc3n3c(=O)cc(N4CCOCC4)nc23)cccc1C(F)(F)F [GSK2306394] ?
0

Same read-out for CCc1ccc(-c2ccc3c(c2)-c2n[nH]cc2S(=O)(=O)N3C)cc1 ?
0

Same read-out for Cc1cccc2c(-c3ccncn3)c(-c3ccc(F)cc3)nn12 [GW515532] ?
0

Same read-out for COc1ccc2cc(-c3nc(-c4ccccc4C(C)C)[nH]c3-c3ccncc3)ccc2c1 [SB-660566] ?
0

Same read-out for COc1cccc(C2=C(Nc3cc(Cl)c(O)c(Cl)c3)C(=O)NC2=O)c1 [SB-390767] ?
0

Same read-out for O=C(Nc1n[nH]c2nc(-c3ccco3)c(Br)cc12)C1CCN(Cc2ccccc2)C1.O=C(O)[C@H](O)[C@@H](O)C(=O)O (centres unmarked) [SB-742034] ?
0

Same read-out for Cc1ccc(NC(=O)Nc2ccccc2)cc1-c1ccc(C(=O)Nc2ccncc2)cc1 [GSK1398471] ?
1

Same read-out for CNc1nc(-c2ccc3c(N)n[nH]c3c2)cc(N2C[C@@H](C(=O)NC3CCCCC3)OC[C@H]2C)n1 [GSK2375584] ?
0

Same read-out for CC(=O)c1c(C)c2cnc(Nc3ccc(N4CCNCC4)cn3)nc2n(C2CCCC2)c1=O ?
6

Same read-out for COc1nccc(-c2c(-c3ccc(F)cc3)ncn2CCCN2CCOCC2)n1 [SB-282852] ?
0

Same read-out for CN1c2ccc(-c3ccc(C(N)=O)cc3)cc2-c2[nH]ncc2S1(=O)=O ?
0

Same read-out for COc1ccc(Nc2nccc(N3CCC(NC(=O)C(C)c4ccc(Cl)cc4)C3)n2)cc1 (centres unmarked) [GSK1379735] ?
0

Same read-out for CC(=O)c1cccc(NC(=O)NC2CCN(c3ccnc(Nc4ccc(F)cc4)n3)C2)c1 (centres unmarked) [GSK1379710] ?
0

Same read-out for COc1ccc(Nc2nccc(-c3ccc(NC(=O)c4cc5cc(F)ccc5[nH]4)cc3)n2)cc1 [GSK1229496] ?
0

###

Field: %Inh. Provide a value for each of the molecules that follow.
Tested on: CDC2L5
Construct: gene CDK13
Details: concentration: 1 μM, replicates: in singlicate; n = 1
State the answer as a number, implicitly in %.

Hi! What's the reported %Inh for Nc1nccc(-c2c(-c3ccc(F)cc3)ncn2C2CCN(Cc3ccccc3)CC2)n1 [SB-219980] on CDC2L5?
0

Same read-out for CNC(=O)c1ccc(C)c(-n2c(C)cc(OCc3ccc(F)cc3F)c(Br)c2=O)c1 ?
0

Same read-out for CC[C@@H]1CO[C@H](C(=O)Nc2ccccc2)CN1c1cc(-c2ccc3c(N)n[nH]c3c2)nc(NC)n1 [GSK2376236] ?
0

Same read-out for Cn1cncc1-c1cc2c(Nc3ccc(OCc4ccccc4)cc3)ncnc2cn1 [GW281179] ?
0

Same read-out for Fc1ccc(-c2nc[nH]c2-c2ccncc2)cc1 [SB-217360] ?
0

Same read-out for COc1ccc2cc(-c3nc(-c4ccccc4C(C)C)[nH]c3-c3ccncc3)ccc2c1 [SB-660566] ?
0

Same read-out for CC(=O)c1c(C)c2cnc(Nc3ccc(N4CCNCC4)cn3)nc2n(C2CCCC2)c1=O ?
0

Same read-out for Cc1ccc(-c2nc(Nc3ccncc3)c3ccccc3n2)s1 [GSK189015] ?
0

Same read-out for O=C1NC(=O)C(c2ccc(Cl)cc2)=C1Nc1cccc(Cl)c1 [SB-317651] ?
0

Same read-out for Nc1cccc(-c2ccc3c(N)n[nH]c3c2)n1 [GSK2192730] ?
0

Same read-out for O=C(Nc1n[nH]c2cc(-c3ccsc3)ccc12)C1CC1 [SB-732932] ?
47

Same read-out for COc1cccc(NC(=O)Nc2ccc(C)c(-c3ccc(C(=O)Nc4ccncc4)cc3)c2)c1 [GSK1398474] ?
0

Same read-out for Cc1c(Cn2c(C)c(C)n3c(=O)cc(N4CCOCC4)nc23)cccc1C(F)(F)F [GSK2328680] ?
0

Same read-out for COc1cccc(CNC(=O)NC2CCN(c3ccnc(Nc4ccc(F)cc4)n3)C2)c1 (stereo not drawn) [GSK1379723] ?
0

Same read-out for O=c1cc(N2CCOCC2)nc2n(Cc3cccc(Cl)c3Cl)c3ccccc3n12 [GSK2299009] ?
0

Same read-out for Fc1ccc(-c2nn3cccc(F)c3c2-c2ccncc2)cc1 [GW475620] ?
0

Same read-out for CC(C)c1cc(-c2ccc3c(N)n[nH]c3c2)nc(N)n1 [GSK2250882] ?
0

Same read-out for CCn1c(-c2ccccc2)nc2cnccc21 [SB-733416] ?
98.3

Same read-out for CNc1nc(-c2ccc3c(N)n[nH]c3c2)cc(N2C[C@@H](C(=O)Nc3ccccc3)CC[C@H]2C)n1 [GSK2298859] ?
0

Same read-out for Cc1ccc(NC(=O)Nc2ccccc2F)cc1-c1ccc(C(=O)Nc2ccncc2)cc1 [GSK1398477] ?
0

Same read-out for Cc1ccc(NC(=O)c2ccc(Cl)cc2)cc1-c1ccc(C(=O)Nc2ccncc2)cc1 [GSK1398467] ?
0

###

Test system: DAPK1;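 further: kd values determined as follow-up on hits from a single-replicate KINOMEscan panel screen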
Field: Kd. Provide a value for each of the compounds that follow.

Need Kd of NS(=O)(=O)c1cccc(N/C=C2\C(=O)Nc3ccc(S(=O)(=O)Cc4c(Cl)cccc4Cl)cc32)c1 , thanks.
> 10 µM

Same read-out for Cn1cnc2c(N)ncnc21 ?
> 10 µM

###

Field: %Inh. Provide a value for each of the compounds that follow.
System: PIP5K2C
Construct: gene PIP4K2C
Conditions: concentration: 1 μM, replicates: in singlicate; n = 1
State the answer as a number, implicitly in %.

Hi! What's the reported %Inh for CNCc1ccc2nc(NC(=O)c3ccc(C(C)(C)C)cc3)cn2c1 on PIP5K2C?
30

Same read-out for Nc1nccc(-c2c(-c3ccc(F)cc3)ncn2C2CCN(Cc3ccccc3)CC2)n1 [SB-219980] ?
82

Same read-out for COc1nccc(-c2c(-c3ccc(F)cc3)ncn2CCCN2CCOCC2)n1 [SB-282852] ?
8

Same read-out for Cc1c(Cn2c3ccccc3n3c(=O)cc(N4CCOCC4)nc23)cccc1C(F)(F)F [GSK2306394] ?
0

Same read-out for CC(=O)c1c(C)c2cnc(Nc3ccc(N4CCNCC4)cn3)nc2n(C2CCCC2)c1=O ?
14

###

Field: %Inh. Provide a value for each of the compounds that follow.
Tested on: ERK3
Construct: gene MAPK6
Details: concentration: 1 μM, replicates: in singlicate; n = 1
State the answer as a number, implicitly in %.

Need %Inh of COc1ccc(-c2coc3ccc(-c4nnc(C)o4)cc23)cc1 , thanks.
0

Same read-out for COC(=O)c1cccc(NC(=O)NC2CCN(c3ccnc(Nc4ccc(OC)cc4)n3)C2)c1 (stereo not drawn) ?
5

Same read-out for c1ccc(-c2ccnc3[nH]ccc23)cc1 ?
0

Same read-out for O=C(Nc1n[nH]c2nc(-c3cccs3)c(Br)cc12)C1CC1 ?
0

Same read-out for CNc1nc(-c2ccc3c(N)n[nH]c3c2)cc(N2C[C@@H](C(=O)NC3CCCCC3)OC[C@H]2C)n1 ?
0

Same read-out for Fc1ccc(-c2nc[nH]c2-c2ccncc2)cc1 ?
0

Same read-out for CCn1c(-c2c(N)noc2C)nc2cnccc21 ?
100

Same read-out for NS(=O)(=O)c1cccc(N/C=C2\C(=O)Nc3ccc(S(=O)(=O)Cc4c(Cl)cccc4Cl)cc32)c1 ?
24

Same read-out for CN1c2ccc(-c3ccc(C(N)=O)cc3)cc2-c2[nH]ncc2S1(=O)=O ?
0

Same read-out for COc1ccc(Nc2nccc(N3CCC(NC(=O)c4cc5ccccc5s4)C3)n2)cc1 (stereo not drawn) ?
0

Same read-out for COC(=O)C(NC(=O)NC1CCN(c2ccnc(Nc3ccc(F)cc3)n2)C1)c1ccccc1 (stereo not drawn) ?
0

Same read-out for COc1ccc(Nc2nccc(N3CCC(NC(=O)C(C)c4ccc(Cl)cc4)C3)n2)cc1 (stereo not drawn) ?
0

Same read-out for CNC(=O)c1ccc(C)c(-n2c(C)cc(OCc3ccc(F)cc3F)c(Br)c2=O)c1 ?
0

Same read-out for CNCc1ccc2nc(NC(=O)c3ccc(C(C)(C)C)cc3)cn2c1 ?
0

Same read-out for COc1ccc(Nc2nccc(N3CCC(NC(=O)C(C)c4ccc(Cl)cc4)CC3)n2)cc1 (stereo not drawn) ?
2

Same read-out for COc1cccc(CNC(=O)NC2CCN(c3ccnc(Nc4ccc(F)cc4)n3)C2)c1 (stereo not drawn) ?
10

Same read-out for O=C(Nc1n[nH]c2nc(-c3cccs3)c(Br)cc12)C1CCCC1 ?
9

Same read-out for Cc1cnc(N)c(/C=C/c2cncc(C(=O)NCCc3ccc(Cl)cc3Cl)c2)c1.Cl ?
0
